As shown below, each of these binders has a reported pKd value.
target_of_assay: T1, GFP-9S library array, motif 4 ND N98K;D124Y (synthetic construct, N98K;D124Y)
T1 chain: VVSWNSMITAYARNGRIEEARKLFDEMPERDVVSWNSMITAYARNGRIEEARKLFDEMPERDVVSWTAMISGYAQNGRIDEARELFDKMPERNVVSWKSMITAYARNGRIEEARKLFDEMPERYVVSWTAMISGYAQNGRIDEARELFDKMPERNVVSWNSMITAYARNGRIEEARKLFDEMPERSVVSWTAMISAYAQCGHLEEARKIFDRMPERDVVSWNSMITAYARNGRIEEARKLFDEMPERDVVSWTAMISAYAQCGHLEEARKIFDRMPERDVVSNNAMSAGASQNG
assay_explanation: high-throughput RNA pulldown from lysate on Ni-NTA beads; HRP: 50 mM Tris pH 8, 150 mM NaCl, 1 mM beta-mercaptoethanol, 50 ug/ml BSA, 3 ug/ml yeast RNA, 0.5% heparin; ITC and FP: Tris pH 8, 200 mM KCl, 5% glycerol; MST: 50 mM Tris pH 8, 200 mM NaCl, 1 mM DTT, BSA, heparin, 0.05% Tween 20
condition: tags: N-terminal His-eGFP; label: 5' IRDye 800CW
pKd: −log10 of the molar value.
readout_kind: pKd

binder="AUUAUACGUGA (ssRNA) [IR-rpoA-U]" observed_result=6.89
binder="AUUAAACGUGA (ssRNA) [IR-rpoA-A]" observed_result=6.94
